method.summary: GPR55 agonists via beta-arrestin recruitment, primary screen, imaging, U2OS cells, beta-arrestin-GFP redistribution (AID 1961);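 also: U2OS osteosarcoma cells stably expressing GPR55 and beta-arrestin-GFP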
test.conditions: measured here: cytotoxicity, cells analyzed, at 10 µM
Out of some 290,000 compounds screened, about 140 (0.048%) were called active. Many of the other results were omitted from the sample, so actives are more common in it than they were.
parameter.measured: cell count (cells)
Your answer should be a plain number; it is taken to be in cells.

The cases that follow already have their cell count on record.
* CC(C)CC(=O)Nc1nnc(S(=O)(=O)N(C)Cc2ccco2)s1 | 342
* CCc1nn(CC(=O)NCCc2ccc(Cl)cc2)c(=O)c2cccn12 | 343
* COc1ccc(CN2C(=O)c3ccccc3C2=O)cc1 | 379
* CCOc1ccc(OCCOCCN2CCOCC2)cc1 | 322
* O=C(C1=C[C@H](c2ccc(C(F)(F)F)cc2)C[C@H](OCc2ccc(CO)cc2)O1)N1CCOCC1 | 338
* O=C(NOC(=O)c1cc(Br)ccc1Cl)c1cccs1 | 347

Determine its reported cell count: "COc1ccc(CNc2nc(-c3cccnc3)nn2S(C)(=O)=O)cc1"
258

Specify cell count for "CC(C)(C)NC(=O)COC(=O)c1cc(Br)ccc1Cl" and stop.
284

State its cell count: CCOC(=O)C(CSCC(=O)c1ccc(Cl)cc1Cl)NC(=O)OC(C)(C)C (stereo unspecified)
359

Please report the measured cell count for "CCn1nc(C)c(CN2CCC(C(=O)Nc3cccc(-c4cccc(Cl)c4)c3)CC2)c1C"
372

Give cell count for the following compound: "COc1ccc(CN2C(=O)c3cccc4cccc(c34)C2=O)cc1"
353

* * *

method.summary: GPR55 agonists via beta-arrestin recruitment, primary screen, imaging, U2OS cells, beta-arrestin-GFP redistribution (AID 1961);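 also: U2OS osteosarcoma cells stably expressing GPR55 and beta-arrestin-GFP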
test.conditions: measured here: cytotoxicity, cells analyzed, at 10 µM
About 140 (0.048%) of roughly 290,000 compounds were called active. This excerpt belongs to a sample that is enriched for actives.
Give MET when the value for cell count is at least 300 cells. Give NOT MET when it is less.

- O=C1c2ccccc2C(=O)N1Cc1cccnc1: MET
- Cc1ccc(C(=O)NC(=S)/C=C2\N(C)c3ccccc3C2(C)C)cc1: NOT MET
- Cc1ccc(SC[C@H](Cc2ccccc2)N2CCN(CCc3ccccc3)CCC2=O)cc1: MET
- CCC(=O)Nc1ccc(OC)cc1OC: MET
- CC(NC(=O)Cn1nc(C(F)(F)F)c2c1CCC2)c1ccccc1 (stereo not drawn): MET
- COc1ccc(CN2CCNC(=O)C2CC(=O)NC2CCC2)c(OC)c1 (stereo not drawn): MET
- COc1ccc(N2CCN(C(=O)c3cc(=O)c4ccc(C)cc4o3)CC2)cc1: MET
- CCOC(=O)c1c(CN2CCN(CCO)CC2)n(-c2ccccc2)c2cc(Br)c(O)cc12: MET

We now examine a further compound.
Tell me whether cell count is at least 300 cells here: CCOc1ccc(/C=N/NC(=O)C(C)N(c2ccc(OC)cc2)S(C)(=O)=O)cc1OCC (stereo not drawn)
NOT MET

* * *

study.system: G-protein coupled receptor 55 (Homo sapiens) (UniProt Q9Y2T6)
Sequence (Q9Y2T6 whole entry, looked up): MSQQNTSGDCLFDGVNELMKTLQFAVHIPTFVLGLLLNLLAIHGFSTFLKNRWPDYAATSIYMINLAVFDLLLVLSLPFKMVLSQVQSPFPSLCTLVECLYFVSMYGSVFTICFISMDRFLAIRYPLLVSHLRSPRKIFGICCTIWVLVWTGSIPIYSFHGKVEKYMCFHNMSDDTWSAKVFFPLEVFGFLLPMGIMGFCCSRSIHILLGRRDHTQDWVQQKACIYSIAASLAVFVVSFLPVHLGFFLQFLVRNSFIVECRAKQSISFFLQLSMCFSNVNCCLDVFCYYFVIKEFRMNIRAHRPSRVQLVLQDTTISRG
method.summary: GPR55 agonists via beta-arrestin recruitment, primary screen, imaging, U2OS cells, beta-arrestin-GFP redistribution (AID 1961);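 also: U2OS osteosarcoma cells stably expressing GPR55 and beta-arrestin-GFP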;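 as to activation: plate controls were DMSO negative control for no effect and LPI positive control for full effect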
test.conditions: at 10 µM, stronger effect = higher value
In all, about 290,000 compounds went through this assay and about 140 (0.048%) were called active. What follows is part of a selection rich in actives, with near analogues and random picks from the rest.
parameter.measured: activation

• CCOCCCNc1nc2c(C)cccn2c(=O)c1/C=C1\SC(=S)N(CC(C)C)C1=O = 1% (inactive)
• CCOCCCNc1nc2c(C)cccn2c(=O)c1/C=C1\SC(=S)N(C(C)CC)C1=O (stereo unspecified) = 69.7% (active)
• CCCN1C(=O)/C(=C/c2c(NCCCOCC)nc3c(C)cccn3c2=O)SC1=S = 5.7% (inactive)

// Input: "CCCc1nnc2n1N=C(c1ccc(C)cc1)CS2" . Output its activation only.
-0.1% (inactive)

Supply activation value. Item: "O=C(N/N=C\c1cccnc1)c1ccc(Cl)cc1Cl"
0.3% (inactive)

Read off the recorded activation for "CCOc1ccc(OCCOCCN2CCOCC2)cc1"
-0.1% (inactive)
